- methodDescription: galactose survival enhancers in mitochondrial complex I cybrids – cell-based, galactose medium, ATP luminescence, primary screen (AID 1645843);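 further: positive z means more ATP and so rescue of galactose-driven cybrid death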
- measurementConditions: complex I mutant cybrid cells, 72 h, stronger effect = higher value
Is z-score at least -0.5? Then class 1. If not, class 0.

compound: CCc1noc(Cn2cnc3sc4c(c3c2=O)CCC(C)C4)n1 (stereo not given)
assignedClass: class 0
--
compound: CC(N)(Cc1ccc(O)cc1)C(=O)O (stereo not given)
assignedClass: class 1
--
compound: Cc1ccnn1CCC(=O)N1CC(=O)N(CC(C)C)CC(OCc2ccccn2)C1 (stereo not given)
assignedClass: class 1
--
compound: Cc1nsc(NC(=O)N2CCCC(C)(CO)C2)n1 (stereo not given)
assignedClass: class 0
--
compound: CCCCc1cn(C2CCN(C(=O)C3CCCCCC3)CC2)nn1
assignedClass: class 0
--
compound: CO[C@H]1[C@@H]([C@@]2(C)O[C@@H]2CC=C(C)C)[C@]2(CC[C@H]1OC(=O)/C=C/C=C/C=C/C=C/C(=O)O)CO2
assignedClass: class 0
--
compound: Cc1nc(C(=O)N(Cc2cccnc2)Cc2ccc3c(c2)OCO3)cs1
assignedClass: class 0
--
compound: CCCC[C@@H](N)C(=O)N1CCC(n2cc(CCCO)nn2)CC1
assignedClass: class 1
--
compound: CCC(CC)(CCC#N)CNCC1(N2CCOCC2)CCCC1
assignedClass: class 0
--
compound: O=C(Nc1cc(Br)c(O)c(Br)c1)c1ccccc1
assignedClass: class 1
--
compound: CCC1=CC2CN(C1)Cc1c([nH]c3ccccc13)[C@@](C(=O)OC)(c1cc3c(cc1OC)N(C)C1[C@@](O)(C(=O)OC)C(OC(C)=O)[C@]4(CC)C=CCN5CC[C@]31C54)C2 (stereo not given in full)
assignedClass: class 0
--
compound: Cn1ncc(S(=O)(=O)Cc2ccccc2)c(Br)c1=O
assignedClass: class 0
--
compound: NOCC(=O)O
assignedClass: class 1
--
compound: Cc1csc(CNC(=O)Cc2csc(-c3ccccc3)n2)n1
assignedClass: class 1
--
compound: Clc1ccc(N2CCN(Cc3cc4ccccn4n3)CC2)cc1
assignedClass: class 0
--
compound: O=C(c1cccc2nccnc12)N1CCc2[nH]nc(COc3ccccc3)c2C1
assignedClass: class 1
--
compound: O=C(O)c1ccc(O)cc1O
assignedClass: class 1
--
compound: CN=C(N)NCCCC(N)C(=O)O (stereo not given)
assignedClass: class 1
--
compound: CC[C@H]1OC(=O)[C@H](C)[C@@H](O[C@H]2C[C@@](C)(OC)[C@@H](O)[C@H](C)O2)[C@H](C)[C@@H](O[C@@H]2O[C@H](C)C[C@H](NC)[C@H]2O)[C@](C)(O)C[C@@H](C)CN(C)[C@H](C)[C@@H](O)[C@]1(C)O
assignedClass: class 1
--
compound: Cc1cccc2c(C(=O)N(C)C(C)C)cc(-c3cnn(C(C)C)c3)nc12
assignedClass: class 1
--
compound: CC(C)Cc1cn(C2CCN(C3CCCCCC3)CC2)nn1
assignedClass: class 0
--
compound: COC(=O)CN1CCN(c2cc(OC)ncn2)CC1=O
assignedClass: class 0
--
compound: Cc1cc2c(=O)n(Cc3nc4ccccc4[nH]3)cnc2s1
assignedClass: class 0
--
compound: CC(C)C[C@H](NC(=O)C1OC1C(=O)O)C(=O)NCCCCN=C(N)N (stereo not given in full)
assignedClass: class 1
